TARGET_UNDER_TEST: Pantothenate synthetase (Mycobacterium tuberculosis (strain ATCC 25618 / H37Rv)) (UniProt P9WIL5)
Sequence (P9WIL5 whole entry, looked up): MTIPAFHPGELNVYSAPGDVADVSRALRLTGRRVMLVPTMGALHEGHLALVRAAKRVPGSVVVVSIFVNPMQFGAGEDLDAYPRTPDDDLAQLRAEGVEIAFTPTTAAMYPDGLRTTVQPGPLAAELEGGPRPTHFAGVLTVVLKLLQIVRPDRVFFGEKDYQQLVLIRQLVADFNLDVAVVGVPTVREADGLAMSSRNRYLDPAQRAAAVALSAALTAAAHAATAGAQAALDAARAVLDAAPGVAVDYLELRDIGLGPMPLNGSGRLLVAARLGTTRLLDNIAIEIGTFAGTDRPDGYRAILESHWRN
PROTOCOL_TEXT: Coupled enzyme confirmation of inhibitors against recombinant Mtb PanC (AID 375);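 also: 0% = full reaction with vehicle and 100% = no enzyme background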
TEST_PARAMETERS: coupled enzyme assay; at 10 µM, hits give high values
Calls of active or inactive are those of the source. No rule for the calls is given here.
ASSAY_METRIC: inhibition

COMPOUND	MEASURED
CCOC(=O)N1CCC(NC(=O)Cn2ncc3c4ccccc4n(C)c3c2=O)CC1	5% (inactive)
CSc1nnc(-c2cnccn2)n1Cc1ccccc1	0% (inactive)
CCOC(=O)c1ccc2nc(NC(NC(C)=O)(C(=O)OC)C(F)(F)F)sc2c1 (stereo unspecified)	2% (inactive)
O=C(CCc1ccc(S(=O)(=O)N2CCOCC2)cc1)NCCc1ccccn1	0% (inactive)
COc1ccc(CCNc2oc(Cc3cccc4ccccc34)nc2C#N)cc1OC	5% (inactive)
COc1ccc(NC(=O)CSC2=C(C#N)C(c3ccco3)C3=C(CCCC3=O)N2)c(OC)c1 (stereo unspecified)	16% (inactive)
Cc1cccc(NC(=O)c2cc(NC(=O)c3ccco3)ccc2Cl)n1	0% (inactive)
O=C(Nc1ccc2oc(-c3ccncc3)nc2c1)c1cccs1	0% (inactive)
COC(=O)c1cc(OC)c(OCc2cc(C(=O)OC)oc2C)c(OC)c1	2% (inactive)
Cc1cc(C)c2nc(C(F)(F)F)nc(NCCCN3CCCC3=O)c2c1	0% (inactive)
O=C(Nc1ccc(CN2CCOCC2)cc1)c1cc2ccccc2oc1=O	4% (inactive)
